System: pigweed (Amaranthus retroflexus)
ASSAY OVERVIEW: Test A preemergence, pigweed
Type: in vivo
CONDITION CONTEXT: 125 g ai/ha, visual injury on 0 to 100 scale (0 no effect, 100 complete control), approximately 10 days
Description: Seeds of plant species selected from barnyardgrass (Echinochloa crus-galli), kochia (Bassia scoparia), ragweed (common ragweed, Ambrosia artemisiifolia), Ryegrass, Italian (Italian ryegrass, Lolium multiflorum), Foxtail, Giant (giant foxtail, Setaria faberi), and pigweed (Amaranthus retroflexus) were planted into a blend of loam soil and sand and treated preemergence with a directed soil spray using test chemicals formulated in a non-phytotoxic solvent mixture which included a surfactant. […]
Answer each item with its documented Pigweed plant response rating.
Answers are plain numbers.

Known results for molecules:
>>> print(df.to_string())
                                   molecule  data_value
0  Cc1cc(C)c(N(S(=O)(=O)C(F)(F)F)S(=O)(=O)C(F)(F)F)cc1-c1cc(Br)nn(C)c1=O          50
1  Cc1cc(C)c(N(S(=O)(=O)C(F)(F)F)S(=O)(=O)C(F)(F)F)cc1-c1ccnn(C)c1=O          50
2  CCOC1CCCN(C(=O)c2cc(NS(=O)(=O)C(F)(F)F)c(C)cc2C)C1 (stereo not shown)         100
3  Cc1cc(C#N)c(C(=O)N(C)C)cc1NS(=O)(=O)C(F)(F)F          80
4  CCC(=O)OCN(c1cc(C2=NOC3(CCCC3)C2)c(C)cc1C)S(=O)(=O)C(F)(F)F          50

Your task in this section: give Pigweed plant response rating for each listed record.
1. Cc1cc(C)c(-c2ccnn(CC(C)C)c2=O)cc1NS(=O)(=O)C(F)(F)F
2. Cc1cc(C)c(N(S(=O)(=O)C(F)(F)F)S(=O)(=O)C(F)(F)F)cc1-c1cn(C)c(=O)n(C)c1=O
3. COC(=O)N(c1cc(C(=O)N2CCCC(OC)C2)c(C)cc1C)S(=O)(=O)C(F)(F)F (stereo not shown)
4. Cc1cc(C(F)(F)F)c(C(=O)N(C)C)cc1NS(=O)(=O)C(F)(F)F

Found:
[20, 40, 90, 30]

For each listed entry, give its Pigweed plant response rating.
1. Cc1cc(C)c(C2=NOC3CCCCC23)cc1NS(=O)(=O)C(F)(F)F (stereo not shown) [Compound 123]
2. Cc1cc(C)c(-c2ccnn(CC(F)(F)F)c2=O)cc1NS(=O)(=O)C(F)(F)F
3. Cc1cc(C)c(C2=NOC3(C2)CC(C)CC(C)C3)cc1NS(=O)(=O)C(F)(F)F (single isomer, unassigned)
4. COC1CCCN(C(=O)c2cc(NS(=O)(=O)C(F)(F)F)c(C)cc2C)C1 (stereo not shown)

Found:
1. 90
2. 50
3. 10
4. 90

Working through the 3 molecules below one at a time, give Pigweed plant response rating for each.
1. COc1c(Cl)nn(C)c(=O)c1-c1cc(NS(=O)(=O)C(F)(F)F)c(C)cc1C
2. Cc1cc(C)c(N(S(=O)(=O)C(F)(F)F)S(=O)(=O)C(F)(F)F)cc1C(=O)N(C)CC1CC1
3. CCn1nc(C)cc(-c2cc(N(S(=O)(=O)C(F)(F)F)S(=O)(=O)C(F)(F)F)c(C)cc2C)c1=O

Found:
1: 40; 2: 60; 3: 50
